Experiment: Plasma stability, beagle dog plasma (K2EDTA)
Assay type: in vitro ADME
Conditions: pH 7.4; beagle dog plasma, 2 μM, anti-coagulant K2-EDTA; read-out: T1/2
Structures can show the parent of a compound that is named as a salt.
Consider the following compounds; for each one, report its half-life at 2 μM.
Numeric answer only, unit h assumed.

Task item: Given the compound CCN(C)Cc1c(Cc2cccc(NS(=O)(=O)NC)c2F)c(=O)oc2cc(OC(=O)N(C)C)c(F)cc12 , what is its reported half-life at 2 μM?
Reply: 23.2

Task item: Given the compound CNS(=O)(=O)Nc1cccc(Cc2c(CN3CCNCC3)c3ccc(OC(=O)N(C)C)cc3oc2=O)c1Cl [Compound 246, hydrochloride] , what is its reported half-life at 2 μM?
Reply: 60.5

* * *

Experiment: Plasma stability, cynomolgus monkey plasma (K2-EDTA)
Assay type: in vitro ADME
Settings: 2 μM, anti-coagulant K2-EDTA, 120 min
Where a name gives a salt, the structure may show the parent alone.
readout: % Remaining at T120
Your answer should be a number followed by the unit of measure.

Task item: Given the compound CCN(C)Cc1c(Cc2cccc(NS(=O)(=O)NC)c2Cl)c(=O)oc2cc(OC(=O)N(C)C)ccc12 [Compound 245] , what is its reported % Remaining at T120?
Reply: 96.5%

Task item: Given the compound CC(C)[N+](C)(CCOC(=O)C1c2ccccc2Oc2ccccc21)C(C)C [Propantheline, reference compound] , what is its reported % Remaining at T120?
Reply: 84.6%

Task item: Given the compound CNS(=O)(=O)Nc1nccc(Cc2c(CN(C)C)c3ccc(OC(=O)N(C)C)cc3oc2=O)c1F [Compound 124] , what is its reported % Remaining at T120?
Reply: 95.9%

Task item: Given the compound CNS(=O)(=O)Nc1cccc(Cc2c(CN3CCNCC3)c3cc(F)c(OC(=O)N(C)C)cc3oc2=O)c1F [Compound 134] , what is its reported % Remaining at T120?
Reply: 93.0%

Task item: Given the compound CNS(=O)(=O)Nc1cccc(Cc2c(CN3CCNCC3)c3ccc(OC(=O)N(C)C)cc3oc2=O)c1Cl [Compound 246, hydrochloride] , what is its reported % Remaining at T120?
Reply: 104.5%

Task item: Given the compound CCS(=O)(=O)Nc1cccc(Cc2c(CN3CCNCC3)c3cc(Cl)c(OC(=O)N(C)C)cc3oc2=O)c1Cl [Compound 257, hydrochloride] , what is its reported % Remaining at T120?
Reply: 98.0%

Task item: Given the compound CCN(C)Cc1c(Cc2cccc(NS(=O)(=O)NC)c2F)c(=O)oc2cc(OC(=O)N(C)C)c(F)cc12 [Compound 238] , what is its reported % Remaining at T120?
Reply: 101.1%

Task item: Given the compound CCCS(=O)(=O)Nc1cccc(Cc2c(CN3CCNCC3)c3cc(Cl)c(OC(=O)N(C)C)cc3oc2=O)c1F [Compound 167] , what is its reported % Remaining at T120?
Reply: 117.3%

Task item: Given the compound CNS(=O)(=O)Nc1cccc(Cc2c(CN(C)C)c3ccc(OC(=O)N(C)C)cc3oc2=O)c1Cl [Compound 274] , what is its reported % Remaining at T120?
Reply: 104.5%

* * *

Assay: Hepatocyte stability, cynomolgus monkey
Assay type: in vitro ADME
Conditions: cynomolgus monkey, hepatocytes, 0.5 million cells/ml, read-out: CLint (mL/min/kg)
Structures can show the parent of a compound that is named as a salt.
readout: CLint scaled at 2 μM (mL/min/kg)
Numeric answer only, unit mL/min/kg assumed.

Task item: Given the compound CNS(=O)(=O)Nc1cccc(Cc2c(CN3CCNCC3)c3ccc(OC(=O)N(C)C)cc3oc2=O)c1Cl [Compound 246, hydrochloride] , what is its reported CLint scaled at 2 μM?
Reply: 13.9

Task item: Given the compound CCN(C)Cc1c(Cc2cccc(NS(=O)(=O)NC)c2Cl)c(=O)oc2cc(OC(=O)N(C)C)ccc12 , what is its reported CLint scaled at 2 μM?
Reply: 230

Task item: Given the compound CNS(=O)(=O)Nc1cccc(Cc2c(CN3CCNCC3)c3cc(Cl)c(OC(=O)N(C)C)cc3oc2=O)c1Cl [Compound 256, hydrochloride] , what is its reported CLint scaled at 2 μM?
Reply: 41.7

Task item: Given the compound CCS(=O)(=O)Nc1cccc(Cc2c(CN3CCNCC3)c3cc(Cl)c(OC(=O)N(C)C)cc3oc2=O)c1Cl [Compound 257, hydrochloride] , what is its reported CLint scaled at 2 μM?
Reply: 31.4

* * *

System: phospho-MEK in A549 cells
Assay: Cell-based pMEK (pMEK:tMEK, CRAF bypass) in A549 cells
Conditions: 2 h, pMEK to total MEK normalized to DMSO control
Method: Materials and Methods: A549 or A375 cells were seeded in 6-well plates at an appropriate seeding density on day 0. […] Protein concentration of the lysate was determined using Bradford Reagent (analyzed using SpectraMax M2E) and diluted to 1 mg/mL or pERK or 1.5 mg/mL for pMEK analysis. […] A549 or […] cells were treated in duplicate for two hours with compounds at varying concentrations. […] After storage, the lysate was quantified with the Bradford assay. […]
readout: A549-CRAF BP 100 nM, 2 h

Task item: Given the compound Cc1c(Cc2cccc(NS(=O)(=O)C(C)C)c2F)c(=O)oc2cc(OC(=O)N(C)C)ccc12 , what is its reported A549-CRAF BP 100 nM, 2 h?
Reply: 39.2 (mean, n = 2)

Task item: Given the compound CNS(=O)(=O)Nc1cccc(Cc2c(CN(C)C)c3ccc(OC(=O)N(C)C)cc3oc2=O)c1F , what is its reported A549-CRAF BP 100 nM, 2 h?
Reply: 44.9 (mean, n = 8)

Task item: Given the compound C#CCNCc1c(Cc2cccc(NS(=O)(=O)NC)c2F)c(=O)oc2cc(OC(=O)N(C)C)ccc12 , what is its reported A549-CRAF BP 100 nM, 2 h?
Reply: 59.1

Task item: Given the compound CNS(=O)(=O)Nc1cccc(Cc2c(C)c3cc(C)c(OC(=O)N(C)C)cc3oc2=O)c1F , what is its reported A549-CRAF BP 100 nM, 2 h?
Reply: 47.9 (mean, n = 2)

Task item: Given the compound CNS(=O)(=O)Nc1nccc(Cc2c(C)c3cc(Cl)c(OC(=O)N(C)C)cc3oc2=O)c1F , what is its reported A549-CRAF BP 100 nM, 2 h?
Reply: 48.6 (mean, n = 2)

Task item: Given the compound CNS(=O)(=O)Nc1nccc(Cc2c(C)c3cc(C)c(OC(=O)N(C)C)cc3oc2=O)c1F , what is its reported A549-CRAF BP 100 nM, 2 h?
Reply: 56.6 (mean, n = 2)

Task item: Given the compound C#CCNCCc1c(Cc2cccc(NS(=O)(=O)NC)c2F)c(=O)oc2cc(OC(=O)N(C)C)ccc12 , what is its reported A549-CRAF BP 100 nM, 2 h?
Reply: 65.9 (mean, n = 2)

* * *

System: phospho-ERK in A549 (KRAS G12S) cells
Test: Cell-based pERK (pERK:tERK) in A549 cells
Conditions: 10 nM, 2 h; phospho- to total protein ratio normalized to DMSO control (Table 9)
Consider the following compounds; for each one, report its A549-pERK (10 nM, 2 h).
Please give only the number in your answer, with no unit.

Task item: Given the compound C#CCNC(=O)CNCc1c(Cc2cccc(NS(=O)(=O)NC)c2F)c(=O)oc2cc(OC(=O)N(C)C)ccc12 , what is its reported A549-pERK (10 nM, 2 h)?
Reply: 113

Task item: Given the compound CNS(=O)(=O)Nc1cccc(Cc2c(CN3CC4(COC4)C3)c3ccc(OC(=O)N(C)C)cc3oc2=O)c1F , what is its reported A549-pERK (10 nM, 2 h)?
Reply: 70.5

Task item: Given the compound CNS(=O)(=O)Nc1cccc(Cc2c(CNCC(=O)N(C)c3ccccc3)c3ccc(OC(=O)N(C)C)cc3oc2=O)c1F , what is its reported A549-pERK (10 nM, 2 h)?
Reply: 109

Task item: Given the compound CNS(=O)(=O)Nc1cccc(Cc2c(CNCC(=O)N(C)CC#N)c3ccc(OC(=O)N(C)C)cc3oc2=O)c1F , what is its reported A549-pERK (10 nM, 2 h)?
Reply: 96.7

Task item: Given the compound CNS(=O)(=O)Nc1cccc(Cc2c(CN(C)C)c3cc(F)c(OC(=O)N(C)C)cc3oc2=O)c1F , what is its reported A549-pERK (10 nM, 2 h)?
Reply: 66.2

Task item: Given the compound CNS(=O)(=O)Nc1cccc(Cc2c(CN3CCN(C(C)C)CC3)c3ccc(OC(=O)N(C)C)cc3oc2=O)c1F , what is its reported A549-pERK (10 nM, 2 h)?
Reply: 73

Task item: Given the compound CNS(=O)(=O)Nc1cccc(Cc2c(CC(=O)Nc3ccn[nH]3)c3ccc(OC(=O)N(C)C)cc3oc2=O)c1F , what is its reported A549-pERK (10 nM, 2 h)?
Reply: 119

Task item: Given the compound CNS(=O)(=O)Nc1cccc(Cc2c(CN3CCN(C4CC4)CC3)c3ccc(OC(=O)N(C)C)cc3oc2=O)c1F , what is its reported A549-pERK (10 nM, 2 h)?
Reply: 73

Task item: Given the compound CNS(=O)(=O)Nc1cccc(Cc2c(CNc3ccsc3)c3ccc(OC(=O)N(C)C)cc3oc2=O)c1F , what is its reported A549-pERK (10 nM, 2 h)?
Reply: 72.4

Task item: Given the compound CNS(=O)(=O)Nc1cccc(Cc2c(CO)c3ccc(OC(=O)N(C)C)cc3oc2=O)c1F , what is its reported A549-pERK (10 nM, 2 h)?
Reply: 75

Task item: Given the compound CNS(=O)(=O)Nc1cccc(Cc2c(CN3CCC4(CN(C)C4)C3)c3ccc(OC(=O)N(C)C)cc3oc2=O)c1F , what is its reported A549-pERK (10 nM, 2 h)?
Reply: 82.7
